test-description: Cytotoxicity against human MRC5 cells assessed as inhibition of cell viability after 24 hrs by MTT assay
Type: cell-based
measured-attribute: CC90 at 24 h (mM)
Expressed in mM, but write only the number.

q: # return recorded CC90 at 24 h for entry CC(C)CC(=O)[C@@H](O)Cc1ccccc1
a: 3.88

---

test-description: Cytotoxicity against human MRC5 cells assessed as inhibition of cell viability after 24 hrs by MTT assay
Assay type: cell-based
measured-attribute: CC50 at 24 h (µM)
Write the value in µM as a bare number.

q: Give the value of CC50 at 24 h reported for the following: CC(C)CC(=O)[C@@H](O)Cc1ccccc1
a: 765
